Below are log10 of IC50 values for UniProtKB P00690 collected from several publications.
Target Of Assay: UniProtKB P00690
Sequence (P00690 whole entry): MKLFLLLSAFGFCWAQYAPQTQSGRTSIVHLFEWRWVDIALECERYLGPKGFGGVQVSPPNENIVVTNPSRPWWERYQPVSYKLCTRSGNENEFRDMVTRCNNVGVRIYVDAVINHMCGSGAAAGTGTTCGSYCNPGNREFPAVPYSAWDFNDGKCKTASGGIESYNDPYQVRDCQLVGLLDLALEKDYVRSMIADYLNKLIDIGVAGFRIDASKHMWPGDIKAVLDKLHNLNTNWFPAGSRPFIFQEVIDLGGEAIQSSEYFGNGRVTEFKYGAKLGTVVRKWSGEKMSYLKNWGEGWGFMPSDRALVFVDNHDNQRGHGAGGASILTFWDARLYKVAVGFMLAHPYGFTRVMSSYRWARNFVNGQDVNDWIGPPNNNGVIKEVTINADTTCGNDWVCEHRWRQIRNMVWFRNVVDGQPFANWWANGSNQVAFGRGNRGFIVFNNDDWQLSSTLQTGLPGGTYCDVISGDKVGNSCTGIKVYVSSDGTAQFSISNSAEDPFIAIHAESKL
// units: µM (pre-log); metric: IC50; scale: log10

get_value(item= "CS/C(=C/C(=O)c1ccc(Br)cc1)Nc1nc2ccccc2s1" , readout=log10 of IC50) returns 1.25

response.value for "Cc1ccc(CN2CCN(S(=O)(=O)c3ccc([N+](=O)[O-])cc3)CC2)cc1" (field: log10 of IC50) = 0.45

Further cases:
Per the record, "CCOc1ccc2nc(N/C(=C\C(=O)c3ccc(C)cc3)SC)sc2c1" has log10 of IC50 of 1.28

Entry "N#C/C=C1\C=C(c2ccccc2)N=C2Sc3ccccc3N21" , log10 of IC50 reported as 1.36

# log10 of IC50 (molecule: "Cc1ccc(CN2CCN(S(=O)(=O)c3ccccc3C)CC2)cc1" ) is 0.46

Recorded log10 of IC50 (molecule "COc1ccc(S(=O)(=O)N2CCN(Cc3ccc(C)cc3)CC2)cc1" ): 0.31

Field log10 of IC50 (entry "CCCCCCCCCCCCCC(=O)c1c(O)cccc1OC" ) reads 1.59

response.value for "COc1cc2c(c3c1CC[C@@H](c1ccccc1)O3)[C@@H]1c3c(cc(O)c(C)c3OC)O[C@](c3ccccc3)(O2)[C@H]1O" (field: log10 of IC50) = 1.43

Lab note: measured log10 of IC50 of "Cc1ccc(CN2CCN(S(=O)(=O)c3ccccc3[N+](=O)[O-])CC2)cc1" was 0.60

====

Record: compiled pIC50 on Pancreatic alpha-amylase (Sus scrofa) from multiple reports.
Target Of Assay: Pancreatic alpha-amylase (Sus scrofa)
Sequence (P00690 whole entry): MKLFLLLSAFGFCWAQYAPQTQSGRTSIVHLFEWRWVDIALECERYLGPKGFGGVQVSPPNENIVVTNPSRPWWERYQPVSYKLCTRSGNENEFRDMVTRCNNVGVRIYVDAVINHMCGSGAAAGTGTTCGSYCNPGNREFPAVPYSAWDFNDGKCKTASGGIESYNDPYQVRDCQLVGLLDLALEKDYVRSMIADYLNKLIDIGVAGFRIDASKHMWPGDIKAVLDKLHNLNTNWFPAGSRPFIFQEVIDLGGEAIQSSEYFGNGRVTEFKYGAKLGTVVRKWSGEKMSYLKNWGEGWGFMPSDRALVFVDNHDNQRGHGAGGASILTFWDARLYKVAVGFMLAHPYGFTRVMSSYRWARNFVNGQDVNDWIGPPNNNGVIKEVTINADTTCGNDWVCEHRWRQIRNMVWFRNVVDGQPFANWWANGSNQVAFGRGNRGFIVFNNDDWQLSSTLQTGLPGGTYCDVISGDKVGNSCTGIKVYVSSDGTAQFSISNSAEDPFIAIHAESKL
Would you please state pIC50, meaning minus log10 of the concentration in mol/L, as a bare number?

Below: 2 molecules and their reported pIC50.
Sample "Cc1cccc(COCCn2c([N+](=O)[O-])cnc2C)c1" ; pIC50 observed: 6.42

pIC50 in this record for "CCOc1ccc2nc(N/C(=C\C(=O)c3ccc(OC)cc3)SC)sc2c1" : 4.73

Further cases:
"O=C(CCCCCCCCc1ccc(O)c(O)c1)c1c(O)cccc1O" has a reported pIC50 of 4.97

pIC50 reported for this molecule "Cc1ccc(CN2CCN(S(=O)(=O)c3ccccc3F)CC2)cc1" : 5.52

// "Cc1ncc([N+](=O)[O-])n1CCOCc1ccc2ccccc2c1" : pIC50 value = 5.78

Lab book: pIC50 of "Cc1ccc(CN2CCN(S(=O)(=O)c3cc(Cl)cc(Cl)c3)CC2)cc1" noted as 5.45

Value of pIC50 reported for the molecule "CS/C(=C/C(=O)c1ccc(C)cc1)Nc1nc2ccccc2s1" is 4.69

molecule "COc1cc2c(c3c1CC[C@@H](c1ccccc1)O3)[C@H]1c3c(cc(O)c(C)c3OC)O[C@@](c3ccccc3)(O2)[C@@H]1O" , pIC50 observed: 4.64

Form: molecule = "COc1cccc(O)c1C(=O)CCCCCCCCc1ccc(O)cc1" ; pIC50 = 4.49

GET /value?item= "CCCCCCCCCCCCC(=O)c1cccc(C(=O)O)c1" &field=pIC50 returns 4.44

response.value for "Cc1ccc(CN2CCN(S(=O)(=O)c3cccc(Br)c3)CC2)cc1" (field: pIC50) = 5.46

Sample "CCOc1ccc2nc(N/C(=C\C(=O)c3ccc(F)cc3)SC)sc2c1" ; pIC50 observed: 4.74

What the record says about "CCCCCCCCCCCCCC(=O)c1c(O)cccc1O" : pIC50 is 4.13

Field pIC50 (entry "CS/C(=C/C(=O)c1ccc(Cl)cc1)Nc1nc2ccccc2s1" ) reads 4.69
